The measured values listed here are drawn from PubChem BioAssay.

- TEST: drug combination growth inhibition, ovarian cancer – cell-based, oncology-focused library, rucaparib conditional, profiling panel (AID 1508598)
- CONDITION LABEL: patient-derived ovarian cancer cells, CellTiter-Glo viability, 144 h; at 0.0195 µM; OCI-C5x cells; with rucaparib 10 µM; stronger effect = lower value; 100% = cells with rucaparib alone
Reported viability values are given for each entry in this list.
// note: answer is a bare numeric in %

Use the examples below as a reference point.
- Cc1nc(Nc2n[nH]c3c2CN(C(=O)N[C@H](CN(C)C)c2ccccc2)C3(C)C)c2sccc2n1: 107
- CC(C)OC(=O)C1=CN(C(=O)c2ccc(F)c(F)c2)CC(C)(C)c2c1[nH]c1ccccc21: 108
- Nc1ccc(C(=O)Nc2cccc(-c3nc(N4CCOCC4)c4oc5ncccc5c4n3)c2)cn1: 115
- CN1CCN(CCOc2cc(OC3CCOCC3)c3c(Nc4c(Cl)ccc5c4OCO5)ncnc3c2)CC1: 107

Please examine the following record next.
Task item: Looking for the measured viability of `Cc1nc2c(-c3cnc(N)nc3)nc(N3CCOCC3)nc2n1C(C)C` , can you help?
Reply: 111

----------
Reported cell count values are given for each entry in this list.
- TEST: viability loss with induced miR-34 in A549 – imaging, A549 dox-inducible miR-34, nuclei and caspase counts, primary screen (AID 1347080)
- CONDITION LABEL: A549 miR-34 inducible, Hoechst nuclei count, 48 h; measured here: total cells without miR-34 induction
Give the value as a plain number.

• CNC(=O)c1nn(C)c2c1C(C)(C)Cc1cnc(Nc3ccc(N4CCN(C)CC4)cc3)nc1-2 = 1090
• Cc1cnc(Nc2ccc(N3CCN(C)CC3)cc2)nc1Nc1cccc(S(=O)(=O)NC(C)(C)C)c1 = 1880
• CC(C)Oc1cccc(-n2c(CCc3c[nH]c4ccc(Br)cc34)nc3ccccc3c2=O)c1 = 6200

Task item: Looking for the measured cell count of CCCN(C/C=C/I)C1CCc2cccc(O)c2C1 (stereo unspecified) , can you help?
Reply: 9000

Task item: Looking for the measured cell count of `O=C(Cc1ccccc1Nc1c(Cl)cccc1Cl)Oc1ccc(-c2cc(=S)ss2)cc1` , can you help?
Reply: 6570

Task item: Looking for the measured cell count of `CCCCC/C=C\C/C=C\CCCC/C=C\CCCC(=O)O` , can you help?
Reply: 5440

Task item: Looking for the measured cell count of `CCCCC[C@H](O)/C=C/[C@@H]1[C@@H](CCCCCCC(=O)O)[C@H](O)C[C@@H]1O` , can you help?
Reply: 6350

Task item: Looking for the measured cell count of `CCCCC[C@@H](O)/C=C/[C@@H]1[C@H](C/C=C\CCCC(=O)O)[C@@H](O)C[C@H]1O` , can you help?
Reply: 6010

----------
- TEST: compounds altering HSF1 focus formation in cells – imaging, Selleck Cancer Library (AID 1347162)
- CONDITION LABEL: human cells, HSF1 nuclear foci imaging, at 10 µM; measured here: cell number
Reported cell count values are given for each entry in this list.
Give the value as a plain number.

• CC(C)(C)c1cnc(CSc2cnc(NC(=O)C3CCNCC3)s2)o1 = 7130

Task item: Looking for the measured cell count of `Cc1c(C(=O)Nc2ccc(N3C[C@@H](C)O[C@@H](C)C3)nc2)cccc1-c1ccc(OC(F)(F)F)cc1` , can you help?
Reply: 6140

Task item: Looking for the measured cell count of `CCc1cc(-c2n[nH]c(C)c2-c2ccc3c(c2)OCCO3)c(O)cc1O` , can you help?
Reply: 5920

Task item: Looking for the measured cell count of `CC(=O)OCCN1C(=O)c2c(C)nc3ccc(S(=O)(=O)N4CCOCC4)cc3c2C1=O` , can you help?
Reply: 7180

Task item: Looking for the measured cell count of `Cc1ccc([C@@H]2O[C@H](CO)[C@@H](O)[C@H](O)[C@H]2O)cc1Cc1ccc(-c2ccc(F)cc2)s1` , can you help?
Reply: 7420

Task item: Looking for the measured cell count of `Cn1cncc1[C@@](N)(c1ccc(Cl)cc1)c1ccc2c(c1)c(-c1cccc(Cl)c1)cc(=O)n2C` , can you help?
Reply: 4640

Task item: Looking for the measured cell count of `C[C@@H](Oc1cc(-n2cnc3ccc(CN4CCN(C)CC4)cc32)sc1C(N)=O)c1ccccc1C(F)(F)F` , can you help?
Reply: 6420

Task item: Looking for the measured cell count of `CCCS(=O)(=O)Nc1ccc(F)c(C(=O)c2c[nH]c3ncc(-c4ccc(Cl)cc4)cc23)c1F` , can you help?
Reply: 6960

Task item: Looking for the measured cell count of `C=CC(=O)Nc1cccc(Oc2nc(Nc3ccc(N4CCN(C)CC4)cc3OC)ncc2Cl)c1` , can you help?
Reply: 5190

Task item: Looking for the measured cell count of `CCOc1ccc(Cc2cc([C@@H]3O[C@H](CO)[C@@H](O)[C@H](O)[C@H]3O)ccc2Cl)cc1` , can you help?
Reply: 6780

Task item: Looking for the measured cell count of `Cn1c(=O)n(-c2ccc(C(C)(C)C#N)cc2)c2c3cc(-c4cnc5ccccc5c4)ccc3ncc21` , can you help?
Reply: 7130

Task item: Looking for the measured cell count of `CCN1CCN(Cc2ccc(-c3cc4c(N[C@H](C)c5ccccc5)ncnc4[nH]3)cc2)CC1` , can you help?
Reply: 7280

Task item: Looking for the measured cell count of `Cc1cnc(Nc2ccc(OCCN3CCCC3)cc2)nc1Nc1cccc(S(=O)(=O)NC(C)(C)C)c1` , can you help?
Reply: 6980

Task item: Looking for the measured cell count of `CCn1c(-c2nonc2N)nc2c(C#CC(C)(C)O)ncc(OC[C@H]3CCCNC3)c21` , can you help?
Reply: 6930

Task item: Looking for the measured cell count of `Cc1cccc(-c2nn3c(c2-c2ccnc4ccc(C(N)=O)cc24)CCC3)n1` , can you help?
Reply: 6630

Task item: Looking for the measured cell count of `CCC(=O)N1CCN(c2ccc(-n3c(=O)ccc4cnc5ccc(-c6cnc7ccccc7c6)cc5c43)cc2C(F)(F)F)CC1` , can you help?
Reply: 7220

Task item: Looking for the measured cell count of `COc1ccc(CNC(=O)Nc2ncc([N+](=O)[O-])s2)cc1` , can you help?
Reply: 7050

Task item: Looking for the measured cell count of `CN(C)c1ccccc1CN1CCCN(Cc2ccccc2N(C)C)C1c1ccncc1` , can you help?
Reply: 6990

----------
- TEST: drug combination growth inhibition, ovarian cancer – cell-based, oncology-focused library, rucaparib conditional, profiling panel (AID 1508598)
- CONDITION LABEL: patient-derived ovarian cancer cells, CellTiter-Glo viability, 144 h; at 1.25 µM; OCI-P5x cells; with rucaparib 20 µM; 100% = cells with rucaparib alone
Active and inactive are the calls of the source.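 How the source made its calls: active means normalized viability below 100% at a tested concentration; inactive means the rest.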
Your reply should match one of these outcome classes. active, inactive

• Cc1cccc(-c2nn3c(c2-c2ccnc4ccc(C(N)=O)cc24)CCC3)n1 = inactive

Task item: I'd appreciate the recorded outcome for `CCC[C@H](Nc1nc(-c2ccc(NC(=O)NCC)c(OC)c2)ncc1C)c1cccnc1` from this test.
Reply: active

Task item: I'd appreciate the recorded outcome for CC[C@@H]1C(=O)N(C)c2cnc(Nc3ccc(C(=O)NC4CCC(N5CCN(CC6CC6)CC5)CC4)cc3OC)nc2N1C(C)C (some centres undefined) from this test.
Reply: active

Task item: I'd appreciate the recorded outcome for `O=C(Nc1cccc(Cl)c1)Nc1ncc(CCNc2ncnc3ccsc23)s1` from this test.
Reply: active

Task item: I'd appreciate the recorded outcome for `O=C(Nc1cn[nH]c1-c1nc2ccc(CN3CCOCC3)cc2[nH]1)NC1CC1` from this test.
Reply: inactive

Task item: I'd appreciate the recorded outcome for `CN1CCCN(C(=O)c2cccc(-c3ccc(/C=C4/C(=O)Nc5ccc(Cl)cc54)o3)c2)CC1` from this test.
Reply: active

Task item: I'd appreciate the recorded outcome for `Fc1cc(-c2cccc3ncc(-c4cnn(C5CCNCC5)c4)nc23)cc(F)c1CN1CCOCC1` from this test.
Reply: active

Task item: I'd appreciate the recorded outcome for Nc1cccc2c1C(=O)N(C1CCC(=O)NC1=O)C2=O (centres undefined) from this test.
Reply: active

Task item: I'd appreciate the recorded outcome for `C=CCn1c(=O)c2cnc(Nc3ccc(N4CCN(C)CC4)cc3)nc2n1-c1cccc(C(C)(C)O)n1` from this test.
Reply: active

----------
- TEST: drug combination growth inhibition, ovarian cancer – cell-based, oncology-focused library, rucaparib conditional, profiling panel (AID 1508598)
- CONDITION LABEL: patient-derived ovarian cancer cells, CellTiter-Glo viability, 144 h; at 1.25 µM; OCI-C5x cells; with rucaparib 10 µM; stronger effect = lower value; 100% = cells with rucaparib alone
METRIC NAME: viability (%)
// note: answer is a bare numeric in %

* COc1nc(C)cnc1NS(=O)(=O)c1cccnc1-c1ccc(-c2nnco2)cc1 | 97.7
* Nc1ccc(-c2ccc3ncc4ccc(=O)n(-c5cccc(C(F)(F)F)c5)c4c3c2)cn1 | 62.2
* CC(C)Oc1ccc(C(=O)N[C@H](CNC(=O)CN(C)C)Cc2ccc(-c3cn4cccc([C@H](C)O)c4n3)cc2)cc1Cl | 61.8
* C#CC[C@H](c1nc2cc(Cl)ccc2c(=O)n1Nc1ccccc1)N(CCCN)C(=O)c1cccc(Cl)c1F | 56.2
* C[C@@H]1CN(CC(=O)Nc2ccc3c(c2)Cc2cccc(-c4cc(=O)cc(N5CCOCC5)o4)c2S3)C[C@H](C)O1 | 101

Task item: Looking for the measured viability of `CNC(=O)c1cc(COc2nnc(Nc3ccc(Cl)cc3)c3ccoc23)ccn1` , can you help?
Reply: 106

Task item: Looking for the measured viability of `CN1CCN(c2ccc3nc(-c4c(N)c5c(F)cccc5[nH]c4=O)[nH]c3c2)CC1` , can you help?
Reply: 148

Task item: Looking for the measured viability of `CC(C)c1cc(-c2n[nH]c(=O)n2-c2ccc3c(ccn3C)c2)c(O)cc1O` , can you help?
Reply: 10
